B1: CPEB3 Ribozyme (parent)
chain: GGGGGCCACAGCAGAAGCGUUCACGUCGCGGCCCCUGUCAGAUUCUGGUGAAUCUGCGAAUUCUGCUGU

# Variants of: B1
# Experimental Protocol: self-cleavage, relative activity (ratio to wild type); higher = more cleavage; co-transcriptional
Measurement Label: self-cleavage
Returns: the value as a bare number; no unit string appended.

Consider the worked cases shown below.
| Chain | Measurement Label | Val |
| --- | --- | --- |
| GGGGGCCACAGCAGAAGCGUUCACGUCGCGGCCCCUGUGAGAUGCUGGUGAAUCUGCGAAUUCUGCUGU | self-cleavage | 0.709 |
| GGGGGCCACAGCAGAAGCGUUCACGUCGCGGCCACUGUCAGAUUCUGGUGAAUCUUCGAAUUCUGCUGU | self-cleavage | 0.679 |

# evaluate next
Q: Consider the variant shown here: "GGGGGCCACAGCAGAAGCGUUCACGUCGCGGCCCCUGUCAGAUUCUGGUGAAUCUGCCUAUUCUGCUGU" What is its recorded self-cleavage?
Result: 0.701
